Data provenance: patent US20250034167A1

- ASSAYED_SYSTEM: His-tagged KRAS G12D protein (Homo sapiens, UniProt P01116, G12D)
- Sequence (P01116 1-188 isoform P01116-2 G12D): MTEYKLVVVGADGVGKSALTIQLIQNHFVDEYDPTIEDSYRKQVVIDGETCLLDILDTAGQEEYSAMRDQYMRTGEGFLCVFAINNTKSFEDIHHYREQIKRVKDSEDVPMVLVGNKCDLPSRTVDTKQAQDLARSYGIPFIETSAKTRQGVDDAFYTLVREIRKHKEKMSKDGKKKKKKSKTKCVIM
- ASSAY_INFO: biochemical
pIC50: −log10 of the molar value.
QUANTITY_NAME: pIC50

COMPOUND	pIC50
CCc1c(F)ccc2cc(O)cc(-c3ncc4c(N5CCC(C(N)=O)CC5)nc(OC[C@@]56CCCN5C[C@H](F)C6)nc4c3F)c12	7.26
C=C1CCCN(c2nc(OC[C@@]34CCCN3C[C@H](F)C4)nc3c(F)c(-c4cc(O)cc5ccc(F)c(CC)c45)ncc23)CC1	8.22

1. CCc1c(F)ccc2cc(O)cc(-c3ncc4c(N5C[C@H](N)CC(F)(F)C5)nc(OC[C@@]56CCCN5C[C@H](F)C6)nc4c3F)c12
2. C[C@@]1(O)CCCN(c2nc(OC[C@@]34CCCN3C[C@H](F)C4)nc3c(F)c(-c4cccc5ccc(F)c(F)c45)ncc23)C1
3. CCc1c(F)ccc2cc(O)cc(-c3ncc4c(N5CC(C)(O)C5)nc(OC[C@@]56CCCN5C[C@H](F)C6)nc4c3F)c12
4. CCc1c(F)ccc2cc(O)cc(-c3ncc4c(N5CC6CC(O)C6C5)nc(OC[C@@]56CCCN5C[C@H](F)C6)nc4c3F)c12 (stereo partly drawn)
5. CCc1c(F)ccc2cc(O)cc(-c3ncc4c(N5CCCC(C(=O)NC)C5)nc(OC[C@@]56CCCN5C[C@H](F)C6)nc4c3F)c12 (stereo partly drawn)
## Task // sort entries: pIC50, high to low Write the labels, ordered according to the request.
## Result 1, 4, 5, 2, 3
(1: 8.52, 4: 8.30, 5: 8.05, 2: 7.77, 3: 7.08)

a. CCc1c(F)ccc2cc(O)cc(-c3ncc4c(N5CCCC(O)(C(N)=O)C5)nc(OC[C@@]56CCCN5C[C@H](F)C6)nc4c3F)c12 (stereo partly drawn)
b. CCc1c(F)ccc2cc(O)cc(-c3ncc4c(N5CC(C)CC(C(N)=O)C5)nc(OC[C@@]56CCCN5C[C@H](F)C6)nc4c3F)c12 (single isomer, unassigned) [Example 163]
## Task // max by pIC50 over [ a , b ] Answer = label.
## Result a

P. CCc1c(F)ccc2cc(O)cc(-c3ncc4c(N5CCC[C@@H](C(N)=O)C5)nc(OC[C@@]56CCCN5C[C@H](F)C6)nc4c3F)c12
Q. CCc1c(F)ccc2cc(O)cc(-c3ncc4c(N5CCC[C@@](C)(CO)C5)nc(OC[C@@]56CCCN5C[C@H](F)C6)nc4c3F)c12
## Task Quick one: lower pIC50, P or Q ? Your choice should be expressed through its label.
## Result Q

A. CCc1c(F)ccc2cc(O)cc(-c3ncc4c(N5CCC(S(N)(=O)=O)C5)nc(OC[C@@]56CCCN5C[C@H](F)C6)nc4c3F)c12 (stereo partly drawn)
B. CCc1c(F)ccc2cc(O)cc(-c3ncc4c(N5CCC6CC6(O)C5)nc(OC[C@@]56CCCN5C[C@H](F)C6)nc4c3F)c12 (stereo partly drawn)
C. CCc1c(F)ccc2cc(O)cc(-c3ncc4c(N5C[C@@H](O)C[C@@H](F)C5)nc(OC[C@@]56CCCN5C[C@H](F)C6)nc4c3F)c12 (mixture of isomers)
D. CCc1c(F)ccc2cc(O)cc(-c3ncc4c(N5CCC[C@@](C)(O)C5)nc(OCC56CCCN5CCC6)nc4c3F)c12
E. CCc1c(F)ccc2cc(O)cc(-c3ncc4c(N5C[C@H]6COC[C@H]6C5)nc(OC[C@@]56CCCN5C[C@H](F)C6)nc4c3F)c12
## Task Order the entries by their reported pIC50, beginning at the minimum. As an answer, provide the labels arranged in the order called for.
## Result A, E, B, D, C
(A: 7.19, E: 7.48, B: 7.96, D: 8.30, C: 8.52)

P. CCc1c(F)ccc2cc(O)cc(-c3ncc4c(N5CCCC(O)(CC)C5)nc(OC[C@@]56CCCN5C[C@H](F)C6)nc4c3F)c12 (stereo partly drawn)
Q. CCc1c(F)ccc2cc(O)cc(-c3ncc4c(N5CC6CC(O)C(C6)C5)nc(OC[C@@]56CCCN5C[C@H](F)C6)nc4c3F)c12 (single isomer, unassigned) [Example 25]
## Task Which record shows the lower pIC50: the first, P , or the second, Q ? Refer to your chosen item by its label in the answer.
## Result Q
(Q: 7.96, P: 8.52)

a. CCc1c(F)ccc2cc(O)cc(-c3ncc4c(N5CC6CC5CCC6O)nc(OCC56CCCN5C[C@H](F)C6)nc4c3F)c12 (stereo in doubt)
b. C[C@@]1(O)CCCN(c2nc(OC[C@@]34CCCN3C[C@H](F)C4)nc3c(F)c(-c4cc(O)cc5cccc(C6CC6)c45)ncc23)C1
## Task Input pair: a , b . Output: entry with lower pIC50. Write the label of whichever entry you select.
## Result a

I. CCc1c(F)ccc2cc(O)cc(-c3ncc4c(N5CCC[C@H]6OCC[C@H]65)nc(OC[C@@]56CCCN5C[C@H](F)C6)nc4c3F)c12 (relative stereo)
II. CCc1c(F)ccc2cc(O)cc(-c3ncc4c(N5CCCC[C@@H](O)C5)nc(OC[C@@]56CCCN5C[C@H](F)C6)nc4c3F)c12
## Task Hey, between I and II which has a smaller measured pIC50? Returns: label corresponding to the selected item.
## Result I

I. CCc1c(F)ccc2cc(O)cc(-c3ncc4c(N5CC(CC(N)=O)C5)nc(OC[C@@]56CCCN5C[C@H](F)C6)nc4c3F)c12
II. CCc1c(F)ccc2cc(O)cc(-c3ncc4c(N5CC(O)(C(N)=O)C5)nc(OC[C@@]56CCCN5C[C@H](F)C6)nc4c3F)c12
## Task Lab note: record which item had the higher pIC50, I or II . I would appreciate it if you answered with the label of your choice.
## Result II

---

- ASSAYED_SYSTEM: His-tagged KRAS G12D protein (Homo sapiens, UniProt P01116, G12D)
- ASSAY_INFO: biochemical
QUANTITY_NAME: IC50 (nM)

COMPOUND	UNITS_SYMBOL	IC50
CCc1c(F)ccc2cc(O)cc(-c3ncc4c(N5C[C@H](O)C[C@@H](O)C5)nc(OC[C@@]56CCCN5C[C@H](F)C6)nc4c3F)c12 [Example 102]	nM	2
C[C@@]1(O)CCCN(c2nc(OC[C@@]34CCCN3C[C@H](F)C4)nc3c(F)c(-c4cc(O)cc5ccccc45)ncc23)C1 [Example 60]	nM	2
CCc1c(F)ccc2cc(O)cc(-c3ncc4c(N5CCCC(O)(C(F)F)C5)nc(OC[C@@]56CCCN5C[C@H](F)C6)nc4c3F)c12 (single isomer, unassigned) [Example 39]	nM	2
Oc1cc(-c2ncc3c(N4CCCCCC4)nc(OC[C@@]45CCCN4C[C@H](F)C5)nc3c2F)c2c(F)c(F)ccc2c1 [Example 166]	nM	3

1. CCc1c(F)ccc2cc(O)cc(-c3ncc4c(N5CCCCC[C@@H]5C)nc(OC[C@@]56CCCN5C[C@H](F)C6)nc4c3F)c12 [Example 81]
2. CCc1c(F)ccc2cc(O)cc(-c3ncc4c(N5CCC(O)C(F)(F)CC5)nc(OC[C@@]56CCCN5C[C@H](F)C6)nc4c3F)c12 (stereo partly shown) [Example 120]
3. CCc1c(F)ccc2cc(O)cc(-c3ncc4c(N5CCCCC[C@H]5C)nc(OC[C@@]56CCCN5C[C@H](F)C6)nc4c3F)c12 [Example 80]
4. CCc1c(F)ccc2cc(O)cc(-c3ncc4c(N5CCCC(S(=O)(=O)C(F)F)C5)nc(OC[C@@]56CCCN5C[C@H](F)C6)nc4c3F)c12 (stereo partly shown) [Example 161]
## Task Hi! Can you put these in order of IC50, lowest number first? Reply with the labels, ordered as the question asks.
## Result 3, 2, 1, 4

1. CCc1c(F)ccc2cc(O)cc(-c3ncc4c(N5CCC=CCC5)nc(OC[C@@]56CCCN5C[C@H](F)C6)nc4c3F)c12 [Example 139]
2. CCc1c(F)ccc2cc(O)cc(-c3ncc4c(N5CCCCC(S(N)(=O)=O)C5)nc(OC[C@@]56CCCN5C[C@H](F)C6)nc4c3F)c12 (stereo partly shown) [Example 158]
## Task Smaller IC50 value? Options are 1 and 2 State your choice using its label.
## Result 2

A. CCc1c(F)ccc2cc(O)cc(-c3ncc4c(N5CCCC(C#N)C5)nc(OC[C@@]56CCCN5C[C@H](F)C6)nc4c3F)c12 (stereo partly shown) [Example 151]
B. CCc1c(F)ccc2cc(O)cc(-c3ncc4c(N5CC(CS(N)(=O)=O)C5)nc(OC[C@@]56CCCN5C[C@H](F)C6)nc4c3F)c12 [Example 82]
## Task # compare IC50 for A vs B ; return the one with the smaller value Identify your selection by its label.
## Result A
(A: 11 nM, B: 33 nM)
